System: 786-O
Test: Euclidean distance of Cell Painting phenotypic profile (signed KS, 77 features) to DMSO centroid (dimensionless distance); 5 or 10 uM (library dependent); higher = stronger phenotypic change vs DMSO (phenoactivity)
Settings: 48 h
reported endpoint: Euclidean distance
One number for each entry.

Solved cases (5 shown):
Fc1ccc(C(c2ccc(F)cc2)N2CCN(C/C=C/c3ccccc3)CC2)cc1 [Flunarizine 2HCl] : 0.978
O=C1[C@H](CC[C@H](O)c2ccc(F)cc2)[C@@H](c2ccc(O)cc2)N1c1ccc(F)cc1 : 1.74
C[N+](C)(C)CCO.O=C([O-])C(O)C(O)C(=O)O (configuration not stated) [Choline bitartrate] : 1.35
N[C@@H]1c2cccnc2[C@H](OC(=O)N2CCC(n3c(=O)[nH]c4ncccc43)CC2)CC[C@H]1c1cccc(F)c1F : 1.04
Nc1n[n+]([O-])c2ccccc2[n+]1[O-] : 2.03

State the recorded Euclidean distance for every item in the following list.
1. CC(C)(C)C(=O)Oc1ccc(S(=O)(=O)Nc2ccccc2C(=O)NCC(=O)O)cc1 [Sivelestat (ONO-5046)]
2. CC(C)n1nc(-c2cc3cc(O)ccc3[nH]2)c2c(N)ncnc21
3. CC(C)(CO)c1cc2cc(NC(=O)C3(c4ccc5c(c4)OC(F)(F)O5)CC3)c(F)cc2n1C[C@@H](O)CO
4. CC1=C(CC(=O)O)c2cc(F)ccc2/C1=C\c1ccc([S+](C)[O-])cc1 (configuration not stated)
5. CCN1CCN(C(=O)N[C@@H](C(=O)N[C@@H]2C(=O)N3[C@@H]2SC(C)(C)[C@@H]3C(=O)O)c2ccccc2)C(=O)C1=O [Piperacillin Sodium]
6. CNCCc1ccccn1 [Betahistine 2HCl]

Result string:
1. 0.847
2. 4.59
3. 1.47
4. 0.824
5. 1.11
6. 1.56

Query string: Look up Euclidean distance for this compound: "CCc1ccc(OCc2ccccc2C(=O)Nc2ccc3nc(C)cc(N)c3c2)cc1"
Result string: 4.35

* * *

Test system: HEPG2
Test: Euclidean distance of Cell Painting phenotypic profile (signed KS, 77 features) to DMSO centroid (dimensionless distance); 5 or 10 uM (library dependent); higher = stronger phenotypic change vs DMSO (phenoactivity)
Conditions: 48 h
Counter-ions that a name gives are not always drawn.
reported endpoint: Euclidean distance
Give bare numbers.

O=C(NC[C@H]1CN(c2ccc(N3CCOCC3=O)cc2)C(=O)O1)c1ccc(Cl)s1 [Rivaroxaban] : 0.52
Cc1c(CN2CCN(C(=O)[C@H](C)O)CC2)sc2c(N3CCOCC3)nc(-c3cnc(N)nc3)nc12 : 3.04
NS(=O)(=O)Cc1noc2ccccc12 [Zonisamide] : 0.835
CC(C)CCN1c2nc(Nc3cc(F)c(O)c(F)c3)ncc2N(C)C(=O)C1C (centres undefined) : 0.771
CCN(CC)Cc1cc(Nc2ccnc3cc(Cl)ccc23)ccc1O [Amodiaquine hydrochloride] : 2.69

State the recorded Euclidean distance for every item in the following list.
1. Cc1cc(Cn2cnc3c2CC(C(=O)O)N(C(=O)C(c2ccccc2)c2ccccc2)C3)ccc1N(C)C (centres undefined)
2. CCc1cccc(CC)c1NC(=O)N1Cc2[nH]nc(NC(=O)c3ccc(N4CCN(C)CC4)cc3)c2C1
3. NC[C@H]1CC[C@H](C(=O)O)CC1 [Tranexamic Acid]

Result string:
1: 0.529; 2: 2.47; 3: 1.31

Query string: Look up Euclidean distance for this compound: O=NN(CCCl)C(=O)NC1CCCCC1 [Lomustine]
Result string: 0.457

Each recorded value in this set is attributed to the supplement of paper PMC10127200.
